Molecular target: ERK2 kinase (Homo sapiens (Human), UniProt P28482)
Sequence (P28482 whole entry): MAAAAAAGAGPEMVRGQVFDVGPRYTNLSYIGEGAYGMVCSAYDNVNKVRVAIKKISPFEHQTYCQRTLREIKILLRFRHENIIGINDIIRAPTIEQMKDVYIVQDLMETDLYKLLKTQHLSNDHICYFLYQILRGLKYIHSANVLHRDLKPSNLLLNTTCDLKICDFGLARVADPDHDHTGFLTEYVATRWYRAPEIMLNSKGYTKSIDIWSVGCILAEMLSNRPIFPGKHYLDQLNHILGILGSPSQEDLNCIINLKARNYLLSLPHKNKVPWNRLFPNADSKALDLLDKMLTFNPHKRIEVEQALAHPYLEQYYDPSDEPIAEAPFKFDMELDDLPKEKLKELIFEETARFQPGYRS
# key: entry, value: IC50
// note: answer is a bare numeric in nM

Use these answered entries as a reference point.
Cc1cnc(Nc2ccnn2C(F)F)nc1-c1nc2c(s1)C(C)(C)N(Cc1cccc(F)c1)C2=O :: 0.52
COc1cc(Nc2ncc(C)c(-c3nc4c(s3)C(C)(C)N(Cc3cccc(F)c3)C4=O)n2)n(C)n1 :: 0.19
Cn1nccc1Nc1nccc(-c2nc3c(s2)C(C)(C)N(Cc2ccc(F)c(F)c2)C3=O)n1 :: 0.37

-- ask Return IC50 for the following compound: Cn1nccc1Nc1nccc(-c2nc3c(s2)C(C)(C)N(Cc2cccc(Cl)c2)C3=O)n1
-- reply 0.24

====

These compounds were tested on ERK2 kinase (Homo sapiens (Human)); IC50 is the recorded read-out.
Form field: result (number plus unit)

COCCn1nccc1Nc1ncc(C)c(-c2nc3c(s2)C(C)(C)N(Cc2cccc(F)c2)C3=O)n1 [WX011] :: 0.98 nM
Cc1cnc(Nc2ccnn2C)nc1-c1nc2c(s1)C(C)(C)N(Cc1cccc(F)c1)C2=O [WX006] :: 0.3 nM

-- ask Quote IC50 with test system ERK2 kinase (Homo sapiens (Human)) for Cc1cnc(Nc2ccnn2C)nc1-c1nc2c(s1)C(C)(C)N(Cc1cccc(Cl)c1)C2=O [WX005]
-- reply 0.05 nM

====

# key: entry, value: half-life
Experiment: In vivo DMPK assay in mouse
Conditions: mouse, plasma; female BALB/c mice, single administration; read-out: T1/2 (half-life) (converted)
Form field: result (number plus unit)

Use these answered entries as a reference point.
Cc1cnc(Nc2ccnn2C)nc1-c1nc2c(s1)C(C)(C)N(Cc1cccc(F)c1)C2=O :: 1 h
[2H]C([2H])([2H])n1nccc1Nc1ncc(C)c(-c2nc3c(s2)C(C)(C)N(Cc2cccc(F)c2)C3=O)n1 :: 1.7 h

-- ask Return half-life for the following compound: Cn1nccc1Nc1nccc(-c2nc3c(s2)C(C)(C)N(Cc2cccc(Cl)c2)C3=O)n1
-- reply 0.9 h

====

Experiment: In vivo DMPK assay in mouse
Conditions: mouse, plasma, iv; female BALB/c mice, 1 mg/kg intravenously; read-out: Cl (clearance rate)
# key: entry, value: clearance
// note: answer is a bare numeric in mL/min/kg

Use these answered entries as a reference point.
Cn1nccc1Nc1nccc(-c2nc3c(s2)C(C)(C)N(Cc2cccc(Cl)c2)C3=O)n1 :: 14.3
[2H]C([2H])([2H])n1nccc1Nc1ncc(C)c(-c2nc3c(s2)C(C)(C)N(Cc2cccc(F)c2)C3=O)n1 :: 28

-- ask Return clearance for the following compound: Cc1cnc(Nc2ccnn2C)nc1-c1nc2c(s1)C(C)(C)N(Cc1cccc(F)c1)C2=O
-- reply 23

====

Test: In vivo DMPK assay in mouse
Settings: mouse, po; female BALB/c mice, plasma, 3 mg/kg orally; read-out: Cmax (maximum concentration)
experimentalEndpoint: Cmax (nM)
// note: answer is a bare numeric in nM

Use these answered entries as a reference point.
[2H]C([2H])([2H])n1nccc1Nc1ncc(C)c(-c2nc3c(s2)C(C)(C)N(Cc2cccc(F)c2)C3=O)n1 :: 1170
Cc1cnc(Nc2ccnn2C)nc1-c1nc2c(s1)C(C)(C)N(Cc1cccc(Cl)c1)C2=O :: 1030
Cn1nccc1Nc1nccc(-c2nc3c(s2)C(C)(C)N(Cc2cccc(Cl)c2)C3=O)n1 :: 3360

Switching to the query record.
-- ask Return Cmax for the following compound: Cc1cnc(Nc2ccnn2C)nc1-c1nc2c(s1)C(C)(C)N(Cc1cccc(F)c1)C2=O
-- reply 1040
